meta.source: ChEMBL document CHEMBL1649427

tested on: Pseudomonas aeruginosa; test: Antimicrobial activity against nagZ gene-deficient Pseudomonas aeruginosa PAO1 after 18 hrs by broth microdilution method; assay type: functional; conditions: PAO1, 18 h
readout kind: MIC (µg/mL)

>>> endpoint_value("O=C(O)c1cn(C2CC2)c2cc(N3CCNCC3)c(F)cc2c1=O [CIPROFLOXACIN]")
0.2
>>> endpoint_value("CO[C@@]1(NC(=O)Cc2cccs2)C(=O)N2C(C(=O)O)=C(COC(N)=O)CS[C@@H]21 [CEFOXITIN]")
800
>>> endpoint_value("C[C@H]1[C@H](NC(=O)/C(=N\\OC(C)(C)C(=O)O)c2csc(N)n2)C(=O)N1S(=O)(=O)O [AZTREONAM]")
0.25
>>> endpoint_value("CC(C)(O/N=C(\\C(=O)N[C@@H]1C(=O)N2C(C(=O)[O-])=C(C[n+]3ccccc3)CS[C@H]12)c1csc(N)n1)C(=O)O [CEFTAZIDIME]")
0.5
